Target Under Test: HU alpha-beta heterodimer (Escherichia coli, UniProt P0ACF0;P0ACF4 1-90;1-90)
Sequence (P0ACF0 whole entry, chain 1 of 2): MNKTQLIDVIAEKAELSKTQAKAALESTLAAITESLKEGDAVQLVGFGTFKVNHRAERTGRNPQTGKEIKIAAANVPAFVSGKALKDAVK
Sequence (P0ACF4 whole entry, chain 2 of 2): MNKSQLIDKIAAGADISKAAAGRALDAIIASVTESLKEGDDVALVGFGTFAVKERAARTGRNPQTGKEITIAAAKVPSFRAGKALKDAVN
Method Notes: EMSA
pKd: −log10 of the molar value.
Readout: pKd

>>> numeric_readout("AGTCTAGAGTGCAGTTGAGTCCTTGCTACGACGGATCCCT (ssDNA) [ssDNA D-40]")
7.27

From: paper PMC2241890
